# System: A431
# assay.explanation: whole-cell filipin (free cholesterol) integrated intensity, Z-score; higher = more cholesterol staining
# measurement.parameters: compound concentration in added solution (µM; 5 µl added to 20 µl cells): 10; 18 h
Where a name gives a salt, the structure may show the parent alone.
measurement.type: whole-cell filipin (z-score)
Give a plain numeric answer without units written out.

Query: Using known records, supply whole-cell filipin (z-score) for CC[C@]12CCCN3CCc4c(n(c5ccccc45)C(=O)C1)[C@@H]32 [Eburnamonine (-)]
Response: -0.836

Query: Dear colleague, please send me the reported whole-cell filipin (z-score) for "CO[C@H]1/C=C/O[C@@]2(C)Oc3c(C)c(O)c4c(c3C2=O)C2=NC3(CCN(CC(C)C)CC3)NC2=C(NC(=O)/C(C)=C\C=C\[C@H](C)[C@H](O)[C@@H](C)[C@@H](O)[C@@H](C)[C@H](OC(C)=O)[C@@H]1C)C4=O" when you can.
Response: 0.49

Query: Report measured whole-cell filipin (z-score); entry is CCCN(CCC)C(=O)C(CCC(=O)O)NC(=O)c1ccccc1 (stereo not drawn) [Proglumide]
Response: -1.22

Query: For the compound CC(C)NCC(O)c1ccc2ccccc2c1 (stereo not drawn) [Pronethalol hydrochloride] , report whole-cell filipin (z-score).
Response: 0.379

Query: Input COc1cc(C)nc(-n2nc(C)cc2OC)n1 [Epirizole] , output reported whole-cell filipin (z-score).
Response: -0.543

Query: Using the record for NS(=O)(=O)c1cc2c(cc1C(F)(F)F)NC(Cc1ccccc1)NS2(=O)=O (stereo not drawn) [Bendroflumethiazide] , state its measured whole-cell filipin (z-score).
Response: -0.332

***
Query: Check the records and state whole-cell filipin (z-score) for CN1C(=O)CC(c2ccccc2)C1=O (stereo not drawn) [Phensuximide]
Response: -0.489

Query: Report whole-cell filipin (z-score) for CCN1C(=O)NC(c2ccccc2)C1=O (stereo not drawn)
Response: -0.136

* * *

# Test system: HeLa MZ
# assay.explanation: filipin (cholesterol) integrated intensity within LBPA endosomes, Z-score; higher = more cholesterol in LBPA endosomes
# measurement.parameters: compound concentration in added solution (µM; 5 µl added to 20 µl cells): 10; 18 h
Counter-ions that a name gives are not always drawn.
Recorded filipin (z-score) for the following compounds
The answer should be a number; do not append a unit.

Here's what some known entries look like.
Query: For the compound CNC(=C[N+](=O)[O-])NCCSCc1ccc(CN(C)C)o1 [Ranitidine hydrochloride] , give its reported filipin (z-score).
Response: -0.559

Query: Hello, please tell me recorded filipin (z-score) for this one: "Cc1cc(C(=O)NNCc2ccccc2)no1"
Response: -0.513

Query: Tell me filipin (z-score) reported for "Nc1ccc(O)c(C(=O)O)c1"
Response: -0.247

---
Query: Annotate the compound N#CC(c1ccc(Cl)cc1)c1c(Cl)cc(-n2ncc(=O)[nH]c2=O)cc1Cl (stereo not drawn) with its measured filipin (z-score).
Response: -0.204

Query: Output measured filipin (z-score) for this item: "O=C(Cn1ccnc1[N+](=O)[O-])NCCO"
Response: -0.325

Query: Quick one: give measured filipin (z-score) for "Nc1ccc(S(=O)(=O)Nc2ccccn2)cc1"
Response: -0.602

* * *

# Test system: A431
# assay.explanation: LBPA endosome anti-LBPA integrated intensity (sum per cell), Z-score; higher = more LBPA staining
# measurement.parameters: compound concentration in added solution (µM; 5 µl added to 20 µl cells): 10; 18 h
Where a name gives a salt, the structure may show the parent alone.
Hi, to clarify the labels: Met covers LBPA endosome anti-LBPA integrated intensity (z-score) from -0.5 upward, Not met covers anything below -0.5.

Query: For this molecule, is measured LBPA endosome anti-LBPA integrated intensity (z-score) -0.5 or higher? "COc1ccc(NS(=O)(=O)c2ccc(N)cc2)nn1"
Response: Not met

Query: # bool: LBPA endosome anti-LBPA integrated intensity (z-score) of CS(=O)(=O)Nc1ccc([N+](=O)[O-])cc1Oc1ccccc1 [Nimesulide] >= -0.5
Response: Not met

Query: Hello, I need to know if "Cc1ccc(C)c(OCCCC(C)(C)C(=O)O)c1" has measured LBPA endosome anti-LBPA integrated intensity (z-score) not below -0.5. Thanks!
Response: Not met

Query: Kindly determine if LBPA endosome anti-LBPA integrated intensity (z-score) recorded for CCN(CC)CCNC(=O)c1cc(Br)c(N)cc1OC [Bromopride] is above or exactly -0.5.
Response: Met

Query: Is LBPA endosome anti-LBPA integrated intensity (z-score) at least -0.5? Consider "CC[C@H](c1ccc(O)cc1)[C@@H](CC)c1ccc(O)cc1"
Response: Met

Query: Evaluate Cc1c(-c2ccccc2)oc2c(C(=O)OCCN3CCCCC3)cccc2c1=O [Flavoxate hydrochloride] : LBPA endosome anti-LBPA integrated intensity (z-score) at minimum -0.5?
Response: Not met

* * *

# Tested on: HeLa MZ
# assay.explanation: filipin (cholesterol) integrated intensity within LBPA endosomes, Z-score; higher = more cholesterol in LBPA endosomes
# measurement.parameters: compound concentration in added solution (µM; 5 µl added to 20 µl cells): 10; 18 h
Structures can show the parent of a compound that is named as a salt.
measurement.type: filipin (z-score)
Give the figure by itself; no unit, no explanation.

Illustrative cases are given below, each with its answer.
Query: Report measured filipin (z-score); entry is C=CCN1CCCC1CNC(=O)c1cc2nn[nH]c2cc1OC (stereo not drawn) [Alizapride HCl]
Response: -0.182

Query: Using known records, supply filipin (z-score) for c1ccc2c(CC3=NCCN3)cccc2c1 [Naphazoline hydrochloride]
Response: 0.0798

Query: For the molecule N=C(N)c1ccc(OCCCCCOc2ccc(C(=N)N)cc2)cc1 [Pentamidine isethionate] , give its reported filipin (z-score).
Response: -0.712

More entries:
Query: State its filipin (z-score): CCCNC(C)C(=O)Nc1ccccc1C (stereo not drawn) [Prilocaine hydrochloride]
Response: -0.406

Query: Look up and report measured filipin (z-score) for this entry: "Cc1cccc(Nc2ccccc2C(=O)O)c1C"
Response: -0.72

Query: Respond only with filipin (z-score) recorded for N=C(N)N/N=C/c1c(Cl)cccc1Cl [Guanabenz acetate]
Response: 0.458

Query: Please indicate filipin (z-score) recorded for NC1CCN(c2c(F)cc3c(=O)c(C(=O)O)cn(C4CC4)c3c2Cl)C1 (stereo not drawn)
Response: -0.286

Query: Give the reported value of filipin (z-score) for this record: O=C(O)[C@H]1/C(=C/CO)O[C@@H]2CC(=O)N21 [Potassium clavulanate]
Response: -0.433

Query: Identify measured filipin (z-score) corresponding to O=c1n(CCCN2CCN(c3cccc(Cl)c3)CC2)nc2ccccn12 [Trazodone hydrochloride]
Response: 1.04

Query: Supply recorded filipin (z-score) for NCCC[C@H](N)CC(=O)N[C@H]1CNC(=O)[C@H]([C@H]2C[C@H](O)NC(N)=N2)NC(=O)/C(=C/NC(N)=O)NC(=O)[C@H](CO)NC(=O)[C@H](CO)NC1=O [Viomycin sulfate] here.
Response: -0.474

Query: Input "CC(C)(Oc1ccc(Cl)cc1)C(=O)O" , output reported filipin (z-score).
Response: -0.568

Query: Please supply the value of reported filipin (z-score) for the item CC(=O)OCC(=O)[C@@]1(O)CC[C@H]2[C@@H]3CCC4=CC(=O)CC[C@]4(C)[C@H]3[C@@H](O)C[C@@]21C [Cortisol acetate]
Response: -0.404

Query: Please supply the value of reported filipin (z-score) for the item CN1C2CCCC1CC(NC(=O)c1nn(C)c3ccccc13)C2 (stereo not drawn)
Response: 0.382

Query: Item CC[N+](C)(C)Cc1ccccc1Br [Bretylium tosylate] : provide filipin (z-score)
Response: -0.561

Query: Report filipin (z-score) for Nc1ccccc1S(N)(=O)=O [2-Aminobenzenesulfonamide]
Response: -0.589

* * *

# maps each entry to its filipin (z-score)
# System: HeLa MZ
# assay.explanation: filipin (cholesterol) integrated intensity within LBPA endosomes, Z-score; higher = more cholesterol in LBPA endosomes
# measurement.parameters: compound concentration in added solution (µM; 5 µl added to 20 µl cells): 10; 18 h
Counter-ions that a name gives are not always drawn.
Write the number on its own, no unit after it.

Field: example entries. Status: answers known.
Query: Answer with the recorded filipin (z-score) for the compound listed here: c1ccc(CC2=NCCN2)cc1 [Tolazoline hydrochloride]
Response: -0.331

Query: Given the compound Cc1ccc(Cl)c(Nc2ccccc2C(=O)O)c1Cl [Meclofenamic acid sodium salt monohydrate] , write its reported filipin (z-score).
Response: -0.606

Query: Give the reported filipin (z-score) for this compound. "CCC(=O)O[C@@H](O[P@](=O)(CCCCc1ccccc1)CC(=O)N1C[C@H](C2CCCCC2)C[C@H]1C(=O)O)C(C)C"
Response: -0.383

Query: Fill in filipin (z-score) for record CC(=O)O[C@H]1C[C@@]2(C)[C@@H](C[C@@H](O)[C@H]3[C@@]4(C)CC[C@@H](O)[C@@H](C)[C@@H]4CC[C@@]32C)/C1=C(\CCC=C(C)C)C(=O)O [Fusidic acid sodium salt]
Response: -0.416

Query: Specify filipin (z-score) for CCC1NC(=O)c2cc(S(N)(=O)=O)c(Cl)cc2N1 (configuration not stated) and stop.
Response: -0.386

Query: Please list filipin (z-score) recorded for the compound CC(C(=O)O)c1ccc(-c2ccccc2)c(F)c1 (configuration not stated)
Response: -0.513

Could you now consider this next compound?
Query: Consider the compound CC1CC(OC(=O)C(O)c2ccccc2)CC(C)(C)N1C (configuration not stated) [Eucatropine hydrochloride] . State its measured filipin (z-score).
Response: -0.342
